tested on: Schistosoma mansoni schistosomula (NMRI); assay: phenotypic severity score (0-4); higher = more antischistosomal effect, active = 2 or more; details: 48 h; 10 µM;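 note: visual microscopic scoring of shape, motility and density changes versus 0.5% DMSO solvent controls, one point per descriptor, degeneracy or death scored 4, mean of duplicate wells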
Returns: one label drawn from active, inactive

Prompt: What call does the record list for COc1ccc2nccc(NC(=O)C3CCN(CCc4ccc(Cl)cc4)CC3)c2n1 ?
Response: inactive

Prompt: Entry to check: c1ccc(Oc2ccc(-c3cc(N4CCNCC4)[nH]n3)cc2)cc1
Response: active

Prompt: Okay, and Cc1ccc(NC(=O)c2nc[nH]c2C(=O)Nc2nc3ccccc3[nH]2)c(C)c1 ?
Response: active

Prompt: // next record O=C(NCCc1ccccc1)c1cc(-c2cccnc2)cnc1NCC1CC1
Response: active

Prompt: // same read-out, input: CCc1nc2ccccc2n1CC(O)COc1cc(C)ccc1Cl (stereo not drawn)
Response: inactive

Prompt: Would you kindly repeat that for Cn1c(=O)c2c(S(C)(=O)=O)snc2n(C)c1=O ?
Response: active

Prompt: Now the molecule NCC(=O)N1CCn2c(nc(-c3ccccc3)c2Nc2ccc3c(c2)OCO3)C1
Response: inactive

Prompt: Next molecule up: CC(C)C(NC(=O)Cc1cccc2ccccc12)C(=O)Nc1cccc(C#N)c1 (stereo not drawn)
Response: inactive

Prompt: Again, but for COc1ccc(N(CCc2cccc(C)n2)C(=O)C2CCCCC2)cc1
Response: active

Prompt: Another molecule: COc1ccccc1OCCCCn1c(C2CC2)nc2ccccc21
Response: inactive

Prompt: Repeat with CC(=O)NC[C@@H]1CN(c2ccc(N3CCOCC3)c(F)c2)C(=O)O1
Response: inactive

Prompt: Can you handle CS(=O)(=O)N1CCC(CCn2nc(Cc3cccc4ccccc34)c3c(N)ncnc32)CC1 next?
Response: inactive

Prompt: Do the same for O=C1[C@@H](Oc2ccccc2)[C@@H](c2ccc(Cl)cc2)N1CCn1cnc2c(NCc3ccccc3)ncnc21 please
Response: active
